# System Tested: KRas G12S (Homo sapiens, UniProt P01116, G12S)
# Construct: Biotinylated KRas (corresponding to amino acids 1-169, produced at Accelegan Inc.); biotin (biotinylated); purchased Accelegan Inc
# Sequence (P01116 1-169 isoform P01116-2 G12S): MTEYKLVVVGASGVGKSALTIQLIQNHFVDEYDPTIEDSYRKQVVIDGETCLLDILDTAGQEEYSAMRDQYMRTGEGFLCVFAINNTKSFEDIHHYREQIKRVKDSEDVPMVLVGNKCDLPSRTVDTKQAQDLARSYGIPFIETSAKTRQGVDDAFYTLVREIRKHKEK
# Procedure Details: KRas binding assay, TR-FRET displacement of Cy5 labelled tracer
# Condition Label: 60-minute incubation at room temperature, 1% DMSO, pH 7.5
Each entry below lists one item and its recorded IC50 value.
Answer format: numeric, nM implied, no suffix.

Fill in: IC50 of N#Cc1c(N)sc2c(F)ccc(-c3c(Cl)cc4c(N5CCN(C(=O)n6nccn6)CC5)nc(OC[C@@]56CCCN5C[C@H](F)C6)nc4c3F)c12 is ___
7

Fill in: IC50 of CN(CCCC(=O)N(C)c1ccccn1)c1nc(OC[C@@]23CCCN2C[C@H](F)C3)nc2c(F)c(-c3ccc(F)c4sc(N)c(C#N)c34)c(Cl)cc12 is ___
4

Fill in: IC50 of CCc1c(F)ccc2cc(O)cc(-c3ncc4c(NCC5CC(C(=O)N(C)C(C)=O)C5)nc(OC[C@@]56CCCN5C[C@H](F)C6)nc4c3F)c12 (stereo partly drawn) is ___
14
